- System: OVCAR-8
- Method summary: NCI tumour cell line growth inhibition, 48 h
Active and inactive are the calls of the source. No stated cut-off is given here; in the data, active = GI50 up to about 1.1 µM and inactive = higher.
Form entry, call: pick from true for active, false for inactive

Cc1cc(C)nc(NS(=O)(=O)c2ccc(NC(=O)c3cccc4c(=O)c5ccccc5[nH]c34)cc2)n1 | false
CC1=CCC2CC1NC(=O)CCOCCC(=O)NC2(C)C (stereo unspecified) | false
CCOP(=O)(OCC)/C(C#N)=C/c1ccc(-c2cc(C(F)(F)F)cc(C(F)(F)F)c2)o1 | false
CC1(C)C(c2ccccc2)=NN(O)c2ccccc21 | false

Input line: Could you please tell me the result logged for CC(C)(C)NC(=O)C12C3C4C1C1C2C3C41I (stereo unspecified) in this assay?
Output line: false

Input line: Param item: Cc1cc(C)c2c(c1)C(=O)C1(C2)Cc2c(ccc(C)c2C)C1=O (stereo unspecified)
Output line: false

Input line: Param item: CN(C)CCN1N=Nc2cccc3cccc1c23
Output line: false

Input line: Param item: COc1cc(O)c2c(=O)c3cccc(C)c3[nH]c2c1
Output line: false

Input line: Param item: N#CC(NC12CC3CC(CC(C3)C1)C2)c1ccc2c(c1)OCO2 (stereo unspecified)
Output line: false

Input line: Param item: CC(=O)NCCC1CNc2ccccc21 (stereo unspecified)
Output line: false

Input line: Param item: Cn1c(/C=C/CO)c(CO)c2c1C(=O)C=C(N1CC1)C2=O [APAZIQUONE]
Output line: true

----------
- Tested on: HOP-62
- Method summary: NCI tumour cell line growth inhibition, 48 h
Active and inactive are the calls of the source. Cut-off read from the data, not from the text of the source: active = GI50 up to about 1.1 µM and inactive = higher.
Measure: GI50

Input line: Request: GI50, test system HOP-62, entry C[C@@H](C[C@@H](O)[C@H](O)C(C)(C)O)[C@H]1CC=C2[C@]3(C)[C@H](O)C[C@H]4C(C)(C)[C@H](O)CC[C@]4(C)[C@H]3CC[C@@]21C
Output line: 15 µM (inactive)

Input line: Param item: Cc1cc(/N=C/c2ccc(C#N)cc2)n(-c2ccccc2)n1
Output line: 68.9 µM (inactive)

Input line: Param item: CO/N=C\c1cc(O)c(O)c(/C=N/OC)c1
Output line: 51.4 µM (inactive)

Input line: Param item: CC(N)C(C)c1ccccc1 (stereo not given)
Output line: > 100 µM (inactive)

Input line: Param item: COc1ccc(C2c3cc4c(cc3OC(N3CCOCC3)C2C)OCO4)cc1 (stereo not given)
Output line: 22.5 µM (inactive)

Input line: Param item: O=C1c2ccccc2C(=O)N1CCCOCc1cnc(O)nc1O
Output line: > 100 µM (inactive)

Input line: Param item: COc1cc2c(cc1OCCCCCOc1cc3c(cc1OC)C(=O)N1CCC[C@H]1CN3)N=C[C@@H]1CCCN1C2=O
Output line: 2.15 µM (inactive)

Input line: Param item: CCCCCCCCCCCCCCCCNc1ccn(C2CC(OP(=O)(O)OCC3OC(n4cc(CC)c(=O)[nH]c4=O)CC3O)C(CO)O2)c(=O)n1 (stereo not given)
Output line: 23.4 µM (inactive)

Input line: Param item: CC(C)c1cccc2sc(NC(=O)C(=O)CC(=O)c3ccc(F)cc3)nc12
Output line: > 100 µM (inactive)

Input line: Param item: C=CC1(NS(=O)(=O)c2ccc(C)cc2)CCC(C(C)(C)C)CC1 (stereo not given)
Output line: 57.7 µM (inactive)

Input line: Param item: COc1ccc(-n2nnc3c(C#N)c(C)c(-c4ccccc4)n3c2=O)cc1
Output line: 4.04 µM (inactive)

Input line: Param item: c1ccc2c3nnc(c2c1)SCCCSc1nnc(c2ccccc12)SCCCS3
Output line: 24.2 µM (inactive)

Input line: Param item: Cc1c(C)n(-c2ccccc2)c2nc([S+](C)[O-])nc([S+](C)[O-])c12 (stereo not given)
Output line: 18.4 µM (inactive)

Input line: Param item: CCN(CC)CC1CCCCN1CC(=O)N1c2ccccc2C(=O)Nc2cccnc21 (stereo not given)
Output line: 34.7 µM (inactive)

Input line: Param item: C=C1C(=O)O[C@@H]2CC(CO)=C([C@@H](C)CCCO)[C@@H](OC(=O)/C(C)=C\C)[C@H]12
Output line: 34.9 µM (inactive)

----------
- Test system: NCI-H226
- Method summary: NCI tumour cell line growth inhibition, 48 h
The source made the active and inactive calls. Cut-off read from the data, not from the text of the source: active = GI50 up to about 1.1 µM and inactive = higher.
Measure: GI50

Solved entries:
CCCCc1c2c(nc3c1CCCC3=O)C(=O)CCC2 | > 100 µM (inactive)
Cc1cc(NC(=O)C(=O)Cc2cnc3ccccc3n2)c(S(=O)(=O)O)cc1Cl | > 100 µM (inactive)

Input line: Name the recorded GI50 for C=C(C=O)[C@@H]1C2OC(=O)C(=C)[C@@H]2CC(O)[C@@]1(C)CC (stereo partly specified) .
Output line: 32 µM (inactive)

----------
Entries annotated with measured GI50
- Test system: EKVX
- Method summary: NCI tumour cell line growth inhibition, 48 h
The source made the active and inactive calls. Cut-off read from the data, not from the text of the source: active = GI50 up to about 1.1 µM and inactive = higher.

Solved entries:
COC1C(O)C(O[C@H]2CC[C@@]3(C)C(CC[C@@H]4[C@@H]3CC[C@]3(C)[C@@H](C(C)OC5OC(CO)C(O)C(O)C5O)CC[C@]43O)C2)OC(C)C1OC1OC(CO)C(O)C(O)C1O (stereo partly drawn) | > 100 µM (inactive)
N#C/C(=C\c1ccc(CP(=O)(O)O)cc1)C(N)=O | > 100 µM (inactive)
C=C(C=O)[C@@H]1C2OC(=O)C(=C)[C@@H]2CC(O)[C@@]1(C)CC (stereo partly drawn) | 18.2 µM (inactive)

Input line: Name the recorded GI50 for CCCCCCCCCCCCCCCCNc1ccn(C2CC(OP(=O)(O)OCC3OC(n4cc(CC)c(=O)[nH]c4=O)CC3O)C(CO)O2)c(=O)n1 (stereo not drawn) .
Output line: 43 µM (inactive)

Input line: Param item: CNCCN[C@@H]1c2cc3c(cc2[C@@H](c2cc(OC)c(O)c(OC)c2)[C@H]2C(=O)OC[C@@H]21)OCO3
Output line: 2.23 µM (inactive)

Input line: Param item: CCCCCCCCCCCCCC/C(C(=O)OC)=C(/O)C(=O)OCC
Output line: 37.2 µM (inactive)

Input line: Param item: Nc1nc(O)c(N)c(NCCOCP(=O)(O)O)n1
Output line: > 100 µM (inactive)

Input line: Param item: Cc1cccc2c(=O)c3c(O)cc4c(c3n(C)c12)C=CC(C)(C)O4
Output line: 25.6 µM (inactive)

----------
- System: SNB-75
- Method summary: NCI tumour cell line growth inhibition, 48 h
Calls of active or inactive are those of the source. Rule as the data show it: active = GI50 up to about 1.1 µM and inactive = higher.
Form entry, call: pick from true (1) (active), false (0) (inactive)

CC1(C)[C@H]2CC[C@@]13C(=O)N1C(=O)O[C@@H]([C@H]1Cl)C(Cl)(COCc1ccccc1)C(=O)OCCO[C@H]3C2 (stereo partly specified) | false (0)
CCOP(=O)(OCC)C(NC(=O)OCC(Cl)(Cl)Cl)n1nnc(C(=O)OC)c1C(=O)OC (stereo unspecified) | false (0)
COc1ccc(-c2cc3ccccc3oc2=O)cc1OC | false (0)

Input line: Could you please tell me the result logged for COC(=O)C(C(=O)OC)C1CCCC(=O)C1 (stereo unspecified) in this assay?
Output line: false (0)

Input line: Param item: C/C(=N/O)C1CC=C(S(=O)(=O)c2ccccc2)C1 (stereo unspecified)
Output line: false (0)

----------
- Tested on: IGROV-1
- Method summary: NCI tumour cell line growth inhibition, 48 h
Activity calls are given as the source filed them. No stated cut-off is given here; in the data, active = GI50 up to about 1.1 µM and inactive = higher.
Form entry, call: pick from active, inactive

COc1ccc(-c2cc(-c3ccc(Nc4ccnc5cc(C(F)(F)F)ccc45)cc3)[nH]c(=O)c2C#N)cc1 | inactive
[N-]=[N+]=Nc1ccccc1Oc1ccccc1 | inactive
CN(C)c1ccc(/C=N/N=C2\C(=O)Nc3c(Cl)cc(Cl)cc32)cc1 | inactive
Cc1cc2c(cc1O)CC[C@@H]1[C@@H]2CC[C@]2(C)[C@@H](O)CC[C@@H]12 | inactive
COc1ccc([C@@H]2C[C@@H]3C(=O)OC(=O)[C@@H]3c3c2c2ccccc2n3C)cc1 | inactive

Input line: Could you please tell me the result logged for Nc1nc(Cl)c(/C=N\O)c(NCC2(CO)CCC2)n1 in this assay?
Output line: inactive

Input line: Param item: C=C1[C@H](OCC(C)C)[C@@H](OC(=O)C(C)CC)[C@@H](O)C(C)(C)/C=C/[C@H](C)C(=O)[C@@]2(O)C[C@H](C)[C@H](O)[C@@H]2[C@H]1OC(=O)C(C)CC (some centres undefined)
Output line: inactive

Input line: Param item: O=C1C(=O)C(CCCO)(CCCO)CCCCCCCCC1(CCCO)CCCO
Output line: inactive

Input line: Param item: CN1N=C2NCCNC3=NN(C)/C(=N/CC/N=C/1S2)S3
Output line: inactive

Input line: Param item: CCOC(=O)c1ccc(/N=N\c2ccc(N(CCC#N)CCC#N)cc2C)cc1
Output line: inactive

Input line: Param item: O=C1c2ccccc2C(=O)c2c1cc(S(=O)(=O)O)c(O)c2O
Output line: inactive
